Biological target: T1, Human CD137 ECD (human)
T1 construct: also called 4-1BB
T1 sequence (chain, as listed by the source limits assumed): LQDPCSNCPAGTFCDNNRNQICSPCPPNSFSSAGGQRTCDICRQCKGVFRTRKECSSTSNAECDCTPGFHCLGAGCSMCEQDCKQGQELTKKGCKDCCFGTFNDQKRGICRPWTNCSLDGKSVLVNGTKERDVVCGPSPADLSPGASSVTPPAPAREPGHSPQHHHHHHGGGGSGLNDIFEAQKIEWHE
Experiment: single mutant vs template dBBDu183H
observed.property: fold change of affinity (fold)
Kindly answer with a numeric value in fold, unit omitted.

# binder, result.value
rows = [
    ("H183/L072 VH F100gI (antibody, name in Kabat numbering, V domains shown) VH: QVQLVESGGGLVQPGRSLRLSCAASGFTFSNAWMHWVRQAPGKGLEWVAQIKDKGNAYAAYYAPSVKGRFTISRDDSKNSIYLQMNSLKTEDTAVYYCHYVHYASASTVLPAIGVDAWGQGTTVTVSS VL: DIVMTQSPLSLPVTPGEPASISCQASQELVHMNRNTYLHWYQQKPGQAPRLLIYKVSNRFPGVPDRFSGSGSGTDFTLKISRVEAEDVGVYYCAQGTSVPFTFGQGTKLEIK", 1),
]

Query block: Which fold change of affinity is reported for this binder? H183/L072 VH S30Y (antibody, name in Kabat numbering, V domains shown) VH: QVQLVESGGGLVQPGRSLRLSCAASGFTFYNAWMHWVRQAPGKGLEWVAQIKDKGNAYAAYYAPSVKGRFTISRDDSKNSIYLQMNSLKTEDTAVYYCHYVHYASASTVLPAFGVDAWGQGTTVTVSS VL: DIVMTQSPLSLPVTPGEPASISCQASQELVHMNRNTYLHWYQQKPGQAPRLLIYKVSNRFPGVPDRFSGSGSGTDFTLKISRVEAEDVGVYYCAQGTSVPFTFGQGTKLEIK
Result block: 0.5

Query block: Which fold change of affinity is reported for this binder? H183/L072 VH A32I (antibody, name in Kabat numbering, V domains shown) VH: QVQLVESGGGLVQPGRSLRLSCAASGFTFSNIWMHWVRQAPGKGLEWVAQIKDKGNAYAAYYAPSVKGRFTISRDDSKNSIYLQMNSLKTEDTAVYYCHYVHYASASTVLPAFGVDAWGQGTTVTVSS VL: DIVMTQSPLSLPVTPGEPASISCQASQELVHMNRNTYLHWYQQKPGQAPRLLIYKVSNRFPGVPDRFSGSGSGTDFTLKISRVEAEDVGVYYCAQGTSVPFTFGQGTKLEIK
Result block: 2.2

Query block: Which fold change of affinity is reported for this binder? H183/L072 VH G65L (antibody, name in Kabat numbering, V domains shown) VH: QVQLVESGGGLVQPGRSLRLSCAASGFTFSNAWMHWVRQAPGKGLEWVAQIKDKGNAYAAYYAPSVKLRFTISRDDSKNSIYLQMNSLKTEDTAVYYCHYVHYASASTVLPAFGVDAWGQGTTVTVSS VL: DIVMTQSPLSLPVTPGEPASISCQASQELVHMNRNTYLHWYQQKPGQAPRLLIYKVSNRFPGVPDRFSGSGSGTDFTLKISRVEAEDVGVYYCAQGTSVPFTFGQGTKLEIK
Result block: 1.3

Query block: Which fold change of affinity is reported for this binder? H183/L072 VH Q50D (antibody, name in Kabat numbering, V domains shown) VH: QVQLVESGGGLVQPGRSLRLSCAASGFTFSNAWMHWVRQAPGKGLEWVADIKDKGNAYAAYYAPSVKGRFTISRDDSKNSIYLQMNSLKTEDTAVYYCHYVHYASASTVLPAFGVDAWGQGTTVTVSS VL: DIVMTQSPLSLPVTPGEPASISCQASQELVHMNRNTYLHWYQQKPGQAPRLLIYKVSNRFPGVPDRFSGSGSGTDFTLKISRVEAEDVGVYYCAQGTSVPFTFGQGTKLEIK
Result block: 0.3
